Measurement record for TrkB (Homo sapiens, UniProt Q16620); quantity recorded: pIC50.
Where a name gives a salt, the structure may show the parent alone.
Expect pIC50 as a plain number equal to -log10 of the molar concentration.

Entry O=C(Nc1ccc(N2CCOCC2)cc1)N1CCC(c2ncnc3cc(N4CCOCC4)ccc23)CC1 [Compound 145] needs its pIC50 filled in; supply it.
4.67

Tell me pIC50 reported for CC(=O)N1CCN(c2ccc3c(C4CCN(C(=O)Nc5ccc(N6CCOCC6)cc5)CC4)ncnc3c2)CC1 [Compound 141]
4.82

For the compound CC(C)Oc1ccc(NC(=O)N2CCC(c3ncnc4cc(OCCCOS(C)(=O)=O)ccc34)CC2)cc1 [Compound 121] , report pIC50.
6.89

Read the entry COc1cc2ncnc(C3CCN(C(=O)Nc4ccc(CO)cc4)CC3)c2cc1OC [Compound 22] and write its reported pIC50.
4.75

Give recorded pIC50. CN1CCN(c2ccc3c(C4CCN(C(=O)Nc5ccc(N6CCCC6)nc5)CC4)ncnc3c2)CC1 [Compound 160]
5.19

Output pIC50 of CC(C)Oc1ccc(NC(=O)N2CCC(c3ncnc4cc(OCCN5CCOC5=O)ccc34)CC2)cc1 [Compound 79]
6.52

Please supply the value of reported pIC50 for the item COCCCOc1ccc2c(C3CCN(C(=O)Nc4ccc(N5CCOCC5)cc4)CC3)ncnc2c1 [Compound 78]
4.74

Please indicate pIC50 recorded for CC(C)Oc1ccc(NC(=O)N2CCC(c3ncnc4cc(Cl)ccc34)CC2)cc1 [Compound 29]
6.30

Using known records, supply pIC50 for COc1cc2ncnc(C3CCN(C(=O)Nc4ccc(OC(C)C)cc4)CC3)c2cc1OC [Compound 1, hydrochloride]
6.66

Given CS(=O)(=O)N1CCN(CCCOc2ccc3c(C4CCN(C(=O)Nc5ccc(N6CCOCC6)cc5)CC4)ncnc3c2)CC1 [Compound 118] , respond with its pIC50.
4.84

Return reported pIC50. Input compound: COc1cc2ncnc(C3CCN(C(=O)Nc4ccc5c(c4)CCO5)CC3)c2cc1OC [Compound 27]
5.03

Write down pIC50 measured for item CN(C)C(=O)N1CCN(c2ccc3c(C4CCN(C(=O)Nc5ccc(N6CCOCC6)cc5)CC4)ncnc3c2)CC1 [Compound 143]
5.12

Give pIC50 for the following compound: CCCCc1ccc(NC(=O)N2CCC(c3ncnc4cc(OC)c(OC)cc34)CC2)cc1 [Compound 43]
6.10

Provide one value: measured pIC50 of COc1cc2ncnc(C3CCN(C(=O)Nc4ccc(OC(F)(F)F)cc4)CC3)c2cc1OC [Compound 50]
6.30

Name the recorded pIC50 of the compound listed here: O=C(Nc1ccc(N2CCOCC2)nc1)N1CCC(c2ncnc3cc(OCCCn4cnnc4)ccc23)CC1 [Compound 110]
4.82

Report pIC50 for COc1cc2ncnc(C3CCN(C(=O)NC4CCCCC4)CC3)c2cc1OC [Compound 42]
4.54

Supply reported pIC50 belonging to this compound: COc1cc2ncnc(C3CCN(C(=O)Nc4ccc(C5CCNCC5)cc4)CC3)c2cc1OC [Compound 64]
4.42

Provide only the value of recorded pIC50 for CN(C)[C@@H]1CCN(c2ccc3c(C4CCN(C(=O)Nc5ccc(N6CCCC6)cc5)CC4)ncnc3c2)C1 [Compound 149]
5.14

For the compound COc1cc2ncnc(C3CCN(C(=O)Nc4ccc(-c5ccco5)cc4)CC3)c2cc1OC [Compound 59] , give its reported pIC50.
4.86

Report pIC50 for COc1cc2ncnc(C3CCN(CC(=O)Nc4ccc(C(C)C)cc4)CC3)c2cc1OC [Compound 9]
6.30

Could you please provide reported pIC50 for CN1CCN(CCCOc2ccc3c(C4CCN(C(=O)Nc5ccc(OC6CCCC6)nc5)CC4)ncnc3c2)CC1 [Compound 82] ? Thanks!
6.40

Please indicate pIC50 recorded for CC(C)Oc1ccc(NC(=O)N2CCC(c3ncnc4cc(OCCCN5CCOCC5)ccc34)CC2)cc1 [Compound 38]
7.00

Give the measured pIC50 for CC(C)c1ccc(NC(=O)N2CCC(c3ncnc4cc(Cl)ccc34)CC2)cc1 [Compound 30]
6.15

Quick one: give measured pIC50 for COc1cc2ncnc(C3CCN(C(=O)Nc4ccc(C(C)(C)C)cc4)CC3)c2cc1OC [Compound 53]
5.96

Complete the entry with pIC50 for CC(C)Oc1ccc(NC(=O)N2CCC(c3ncnc4ccc(C#CCN5CCCCC5)cc34)CC2)cc1 [Compound 14]
6.52

Annotate the compound CCN(CC)CCOc1ccc2c(C3CCN(C(=O)Nc4ccc(OC(C)C)cc4)CC3)ncnc2c1 [Compound 35] with its measured pIC50.
5.82

Report measured pIC50; entry is COc1ccc2c(C3CCN(C(=O)Nc4ccc(C(C)C)cc4)CC3)ncnc2c1 [Compound 32]
6.30

Values compiled from patent US8071768B2.
